Recorded IC50 values for a group of compounds are listed next.
- target_or_system: recombinant human FAK1 (Homo sapiens)
- Construct: fused on or other part: N-terminal 6xHis tag
- Sequence (Q05397 422-680 limits assumed): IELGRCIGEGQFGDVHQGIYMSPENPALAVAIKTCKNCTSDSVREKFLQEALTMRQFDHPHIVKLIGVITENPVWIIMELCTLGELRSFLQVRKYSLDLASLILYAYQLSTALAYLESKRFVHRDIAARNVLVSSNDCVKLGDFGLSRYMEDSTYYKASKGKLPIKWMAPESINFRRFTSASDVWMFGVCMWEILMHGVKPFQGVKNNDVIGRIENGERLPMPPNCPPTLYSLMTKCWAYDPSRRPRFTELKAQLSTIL
- assay_details: FAK1 HTRF assay

Memo: CN(C)C1CCN(c2ccc(Nc3ncc4ccn(Cc5ccccc5N(C)S(C)(=O)=O)c4n3)cc2)CC1 [Example 468] , reported IC50: < 20 nM

Memo: COc1cccc(Nc2ncc3ccn(Cc4ccccc4N(CCN4CCNCC4)S(C)(=O)=O)c3n2)c1 [Example 583] , reported IC50: > 1000 nM

Memo: CN1CCCN(c2ccc(Nc3cc4c(ccn4S(=O)(=O)c4ccccc4C#N)cn3)cc2)CC1 [Example 505] , reported IC50: < 20 nM

Memo: CN(c1ccc(F)cc1Cn1ccc2cnc(Nc3ccc(N4CCC(N)CC4)cc3)nc21)S(C)(=O)=O [Example 799] , reported IC50: < 20 nM
